assayed_system: HIV-1 protease (Human immunodeficiency virus type 1 group M subtype B)
assay_protocol: biochemical
recorded_conditions: read-out: HIV-1 Protease % Inhib, dose 0.123 uM
result_type: inhibition at 0.123 µM (%)
The reply should be a number in %, with the unit left off.

# input molecule: Cc1ccccc1S(=O)(=O)Nc1cccc(C(c2c(O)c3c(oc2=O)CCCCCC3)C2CC2)c1 (stereo not drawn) [Example 330] ; wanted: its inhibition at 0.123 µM
47.2

# input molecule: O=c1oc2c(c(O)c1C(c1cccc(NS(=O)(=O)c3cccc(O)c3)c1)C1CC1)CCCCCC2 (stereo not drawn) [Example 405] ; wanted: its inhibition at 0.123 µM
46.5

# input molecule: CCC(=O)C1CCCCCc2c1oc(=O)c(C(c1ccccc1)C1CC1)c2O (stereo not drawn) [Example 174] ; wanted: its inhibition at 0.123 µM
11.4

# input molecule: CC(C)C(c1cccc(NS(=O)(=O)c2ccc(F)cc2)c1)c1c(O)c2c(oc1=O)CCCCCC2 (stereo not drawn) [Example 418] ; wanted: its inhibition at 0.123 µM
81.8

# input molecule: O=C(CCN1CCCCC1)Nc1cccc(C(c2c(O)c3c(oc2=O)CCCCCC3)C2CC2)c1 (stereo not drawn) [Example 205] ; wanted: its inhibition at 0.123 µM
12.6

# input molecule: CN(C)c1ccc(S(=O)(=O)Nc2cccc(C(c3c(O)c4c(oc3=O)CCCCCC4)C3CC3)c2)cc1 (stereo not drawn) [Example 352] ; wanted: its inhibition at 0.123 µM
49.7

# input molecule: O=c1oc2c(c(O)c1C(c1cccc(NS(=O)(=O)c3ccc(Br)cc3)c1)C1CC1)CCCCCC2 (stereo not drawn) [Example 272] ; wanted: its inhibition at 0.123 µM
67.1

# input molecule: O=c1oc2c(c(O)c1C(c1cccc(NS(=O)(=O)c3cc(C(F)(F)F)cc(C(F)(F)F)c3)c1)C1CC1)CCCCCC2 (stereo not drawn) [Example 332] ; wanted: its inhibition at 0.123 µM
23.1

# input molecule: CCCc1ccc(S(=O)(=O)Nc2cccc(C(c3c(O)c4c(oc3=O)CCCCCC4)C3CC3)c2)cc1 (stereo not drawn) [Example 342] ; wanted: its inhibition at 0.123 µM
42

# input molecule: CCC1CCCCc2c1oc(=O)c(C(c1ccccc1)C1CC1)c2O (stereo not drawn) [Example 185] ; wanted: its inhibition at 0.123 µM
18.7

# input molecule: O=c1oc2c(c(O)c1C(c1ccccc1)C1CC1)CCCCCC2CC1CCOC1 (stereo not drawn) [Example 133] ; wanted: its inhibition at 0.123 µM
19.1

# input molecule: CC(O)CC1CCCCCc2c1oc(=O)c(C(c1ccccc1)C1CC1)c2O (stereo not drawn) [Example 162] ; wanted: its inhibition at 0.123 µM
14.8

# input molecule: COc1ccc(S(=O)(=O)Nc2cccc(C(c3c(O)c4c(oc3=O)CCCCCC4)C3CC3)c2)cc1OC (stereo not drawn) [Example 335] ; wanted: its inhibition at 0.123 µM
48.7

# input molecule: O=c1oc2c(c(O)c1C(c1cccc(NS(=O)(=O)c3ccc(OC(F)(F)F)cc3)c1)C1CC1)CCCCCC2 (stereo not drawn) [Example 312] ; wanted: its inhibition at 0.123 µM
48.2

###

assayed_system: HIV-1 protease (Human immunodeficiency virus type 1 group M subtype B, UniProt P04585)
assay_protocol: biochemical
recorded_conditions: read-out: HIV-1 Protease % Inhib, dose 10.000 uM
result_type: inhibition at 10 µM (%)
The reply should be a number in %, with the unit left off.

| compound | assayed_system | experimental_value |
| --- | --- | --- |
| CC(C)CC(c1cccc(NS(=O)(=O)c2cccnc2)c1)c1c(O)c2c(oc1=O)CCCCCC2 (stereo not shown) [Example 429] | HIV-1 protease (Human immunodeficiency virus type 1 group M subtype B, UniProt P04585) | 107 |

Find inhibition at 10 µM (HIV-1 protease (Human immunodeficiency virus type 1 group M subtype B, UniProt P04585)) for the entry O=c1oc2c(c(O)c1C(c1cccc(NS(=O)(=O)c3cccc(NS(=O)(=O)CCCCl)c3)c1)C1CC1)CCCCCC2 (stereo not shown) [Example 313]
106

Find inhibition at 10 µM (HIV-1 protease (Human immunodeficiency virus type 1 group M subtype B, UniProt P04585)) for the entry O=c1oc2c(c(O)c1C(c1cccc(NS(=O)(=O)c3cc(Cl)cc(Cl)c3O)c1)C1CC1)CCCCCC2 (stereo not shown) [Example 284]
107

Find inhibition at 10 µM (HIV-1 protease (Human immunodeficiency virus type 1 group M subtype B, UniProt P04585)) for the entry O=c1oc2c(c(O)c1C(c1ccccc1)C1CC1)CCCCCC2CC1CCOC1 (stereo not shown) [Example 133]
101

Find inhibition at 10 µM (HIV-1 protease (Human immunodeficiency virus type 1 group M subtype B, UniProt P04585)) for the entry CCC(c1cccc(NC(=O)CCn2ccc3ccccc32)c1)c1c(O)c2ccccc2oc1=O (stereo not shown) [Example 63]
90.3

Find inhibition at 10 µM (HIV-1 protease (Human immunodeficiency virus type 1 group M subtype B, UniProt P04585)) for the entry O=c1oc2ccccc2c(O)c1C1CCCc2ccccc21 (stereo not shown) [Example 34]
50.3

Find inhibition at 10 µM (HIV-1 protease (Human immunodeficiency virus type 1 group M subtype B, UniProt P04585)) for the entry CN(C)c1ccc(S(=O)(=O)Nc2cccc(C(c3c(O)c4c(oc3=O)CCCCCC4)C3CC3)c2)cc1 (stereo not shown) [Example 352]
102

Find inhibition at 10 µM (HIV-1 protease (Human immunodeficiency virus type 1 group M subtype B, UniProt P04585)) for the entry O=C(NCc1ccc(S(=O)(=O)Nc2cccc(C(c3c(O)c4c(oc3=O)CCCCCC4)C3CC3)c2)s1)c1ccccc1 (stereo not shown) [Example 296]
108

Find inhibition at 10 µM (HIV-1 protease (Human immunodeficiency virus type 1 group M subtype B, UniProt P04585)) for the entry O=c1oc2c(c(O)c1C(c1ccccc1)C1CC1)CCCC2 (stereo not shown) [Example 115]
102

Find inhibition at 10 µM (HIV-1 protease (Human immunodeficiency virus type 1 group M subtype B, UniProt P04585)) for the entry CC(C)CC(c1cccc(NS(=O)(=O)c2cccc3cccnc23)c1)c1c(O)c2c(oc1=O)CCCCCC2 (stereo not shown) [Example 428]
87.9

Find inhibition at 10 µM (HIV-1 protease (Human immunodeficiency virus type 1 group M subtype B, UniProt P04585)) for the entry CC(C)(C)OC(=O)NCCC(=O)Nc1cccc(C(c2c(O)c3c(oc2=O)CCCCC3)C2CC2)c1 (stereo not shown) [Example 214]
95.2

###

assayed_system: HIV-1 protease (Human immunodeficiency virus type 1 group M subtype B, UniProt P04585)
assay_protocol: biochemical
recorded_conditions: read-out: HIV-1 Protease % Inhib, dose 0.123 uM
Catalogue of inhibition at 0.123 µM values
The reply should be a number in %, with the unit left off.

These solved cases illustrate the format of a correct answer.
| compound | experimental_value |
| --- | --- |
| O=c1oc2c(c(O)c1C(c1ccccc1)C1CC1)CCCCC2CC1CCCO1 (centres unmarked) | 15.7 |
| Cc1ccc(S(=O)(=O)Nc2cccc(C(c3c(O)c4c(oc3=O)CCCCCC4)C3CC3)c2)cc1 (centres unmarked) | 59.8 |
| C[C@H](NC(=O)OC(C)(C)C)C(=O)Nc1cccc(C(c2c(O)c3c(oc2=O)CCCCCC3)C2CC2)c1 (some centres unmarked) | 67.1 |
| O=c1oc2c(c(O)c1C(c1cccc(NS(=O)(=O)c3ccc(-c4ccon4)s3)c1)C1CC1)CCCCCC2 (centres unmarked) | 79.8 |
| CCCCC1CCCCCc2c1oc(=O)c(C(c1ccccc1)C1CC1)c2O (centres unmarked) | 23.2 |
| O=c1oc2c(c(O)c1C(c1cccc(NS(=O)(=O)c3cccc(S(=O)(=O)N4CCOCC4)c3)c1)C1CC1)CCCCCC2 (centres unmarked) | 71.1 |

# input compound: Cc1cncc(S(=O)(=O)Nc2cccc(C(c3c(O)c4c(oc3=O)CCCCCC4)C3CC3)c2)c1 (centres unmarked) ; wanted: its inhibition at 0.123 µM
80.7

# input compound: O=c1oc2c(c(O)c1C(c1cccc(NS(=O)(=O)c3cc(Cl)cc(Cl)c3)c1)C1CC1)CCCCCC2 (centres unmarked) ; wanted: its inhibition at 0.123 µM
46.9

# input compound: O=c1oc2c(c(O)c1C(c1cccc(NS(=O)(=O)c3cc(Cl)c(Cl)s3)c1)C1CC1)CCCCCC2 (centres unmarked) ; wanted: its inhibition at 0.123 µM
78.6

# input compound: Cc1ccc(S(=O)(=O)n2cncc2C[C@H](NC(=O)OC(C)(C)C)C(=O)Nc2cccc(C(c3c(O)c4c(oc3=O)CCCCCC4)C3CC3)c2)cc1 (some centres unmarked) ; wanted: its inhibition at 0.123 µM
56

# input compound: O=c1oc2c(c(O)c1C(c1cccc(NS(=O)(=O)c3cccc([N+](=O)[O-])c3)c1)C1CC1)CCCCCC2 (centres unmarked) ; wanted: its inhibition at 0.123 µM
70

# input compound: O=c1oc2c(c(O)c1C(c1cccc(NS(=O)(=O)c3ccc(Cl)c(Cl)c3)c1)C1CC1)CCCCCC2 (centres unmarked) ; wanted: its inhibition at 0.123 µM
77.1

# input compound: CC(C)c1ccc(S(=O)(=O)Nc2cccc(C(c3c(O)c4c(oc3=O)CCCCCC4)C3CC3)c2)cc1 (centres unmarked) ; wanted: its inhibition at 0.123 µM
50

# input compound: O=c1oc2c(c(O)c1C(c1cccc(NS(=O)(=O)c3ccc(F)cc3F)c1)C1CC1)CCCCCC2 (centres unmarked) ; wanted: its inhibition at 0.123 µM
78.2

# input compound: O=C(COCc1ccccc1)Nc1cccc(S(=O)(=O)Nc2cccc(C(c3c(O)c4c(oc3=O)CCCCCC4)C3CC3)c2)c1 (centres unmarked) ; wanted: its inhibition at 0.123 µM
38.4

# input compound: O=c1oc2c(c(O)c1C(c1cccc(NS(=O)(=O)c3ccc(I)cc3)c1)C1CC1)CCCCCC2 (centres unmarked) ; wanted: its inhibition at 0.123 µM
68.8

# input compound: CCCC(c1cccc(NS(=O)(=O)c2ccc(C#N)cc2)c1)c1c(O)c2c(oc1=O)CCCCCC2 (single isomer, unassigned) [Example 437] ; wanted: its inhibition at 0.123 µM
68.1

# input compound: CC(C)C(c1cccc(NS(=O)(=O)c2cccc3cccnc23)c1)c1c(O)c2c(oc1=O)CCCCCC2 (centres unmarked) ; wanted: its inhibition at 0.123 µM
50.9

# input compound: O=c1oc2c(c(O)c1C(c1cccc(NS(=O)(=O)c3c(F)c(F)c(F)c(F)c3F)c1)C1CC1)CCCCCC2 (centres unmarked) ; wanted: its inhibition at 0.123 µM
36.3

# input compound: CN(C)c1ccc(N=Nc2ccc(S(=O)(=O)Nc3cccc(C(c4c(O)c5c(oc4=O)CCCCCC5)C4CC4)c3)cc2)cc1 (centres unmarked) ; wanted: its inhibition at 0.123 µM
46.6

# input compound: CCCC(c1cccc(NS(=O)(=O)c2cccc3cccnc23)c1)c1c(O)c2c(oc1=O)CCCCCC2 (centres unmarked) ; wanted: its inhibition at 0.123 µM
101

# input compound: Cc1noc(C)c1S(=O)(=O)Nc1cccc(C(c2c(O)c3c(oc2=O)CCCCCC3)C2CC2)c1 (centres unmarked) ; wanted: its inhibition at 0.123 µM
39.1

# input compound: O=C(Cc1ccccc1)Nc1cccc(C(c2c(O)c3c(oc2=O)CCCCCC3)C2CC2)c1 (centres unmarked) ; wanted: its inhibition at 0.123 µM
14

# input compound: O=c1oc2c(c(O)c1C(c1cccc(NS(=O)(=O)c3ccc([N+](=O)[O-])cc3)c1)C1CC1)CCCCCC2 (centres unmarked) ; wanted: its inhibition at 0.123 µM
68.4

# input compound: CC(C)CC(c1cccc(NS(=O)(=O)c2ccc(C#N)cc2)c1)c1c(O)c2c(oc1=O)CCCCCC2 (centres unmarked) ; wanted: its inhibition at 0.123 µM
102

# input compound: CCCC(c1cccc(NS(=O)(=O)c2cn(C)cn2)c1)c1c(O)c2c(oc1=O)CCCCCC2 (centres unmarked) ; wanted: its inhibition at 0.123 µM
109

# input compound: O=c1oc2c(c(O)c1C(c1cccc(NS(=O)(=O)C=Cc3ccccc3)c1)C1CC1)CCCCCC2 (centres unmarked) ; wanted: its inhibition at 0.123 µM
66.4

# input compound: CCCC1CCCCCc2c1oc(=O)c([C@@H](c1ccccc1)C1CC1)c2O (mixture of isomers) ; wanted: its inhibition at 0.123 µM
19.3

# input compound: O=c1oc2c(c(O)c1C(c1cccc(NS(=O)(=O)c3cccc4ccccc34)c1)C1CC1)CCCCCC2 (centres unmarked) ; wanted: its inhibition at 0.123 µM
61.7
